molecular target: FGFR3 (V555M) (Homo sapiens, UniProt P22607, V555M); construct: made in house; host or cells: E. coli host derived from BL21, infected with T7 phage; test: Kinase binding assay (Kd), FGFR3 (V555M); details: 11-point 3-fold dilution, qPCR readout
Sequence (P22607 23-806 V555M): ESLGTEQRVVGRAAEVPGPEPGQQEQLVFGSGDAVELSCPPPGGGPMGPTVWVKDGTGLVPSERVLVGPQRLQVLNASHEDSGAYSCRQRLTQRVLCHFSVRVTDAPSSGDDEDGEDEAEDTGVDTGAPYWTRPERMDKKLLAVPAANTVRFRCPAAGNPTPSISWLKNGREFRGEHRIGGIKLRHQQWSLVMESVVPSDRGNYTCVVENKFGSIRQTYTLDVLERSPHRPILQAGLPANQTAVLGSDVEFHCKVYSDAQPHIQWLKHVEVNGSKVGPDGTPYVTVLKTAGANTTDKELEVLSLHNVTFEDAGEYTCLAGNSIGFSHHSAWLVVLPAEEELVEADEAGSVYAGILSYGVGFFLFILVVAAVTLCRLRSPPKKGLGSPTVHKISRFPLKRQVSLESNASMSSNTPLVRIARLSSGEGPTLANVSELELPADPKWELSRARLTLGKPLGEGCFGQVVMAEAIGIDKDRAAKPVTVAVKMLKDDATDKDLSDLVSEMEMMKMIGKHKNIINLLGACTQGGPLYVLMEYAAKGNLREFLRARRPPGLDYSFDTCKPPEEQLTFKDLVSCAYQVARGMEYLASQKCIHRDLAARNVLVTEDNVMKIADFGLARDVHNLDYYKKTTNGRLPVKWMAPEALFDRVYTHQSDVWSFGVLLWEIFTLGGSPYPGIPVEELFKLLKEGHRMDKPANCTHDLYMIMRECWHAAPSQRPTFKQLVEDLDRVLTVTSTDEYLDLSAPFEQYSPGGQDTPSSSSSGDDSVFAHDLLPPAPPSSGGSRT
Below, each of the compounds is paired with its reported Kd value.
Number only, in nM; omit the unit.

# STRUCTURE_STRING, Kd [nM]
measured = [
    ("COc1cc(N=S(C)(C)=O)ccc1Nc1ncc(Cl)c(-c2c[nH]c3ccccc23)n1", 15),
]

// next entry
FGFR3 (V555M) (Homo sapiens, UniProt P22607, V555M) data for C=CC(=O)Nc1cc2ccn(-c3nc(Nc4ccc(N=S(C)(C)=O)cc4)ncc3Cl)c2cc1C ; its Kd: 16

* * *

target: FGFR3 (V555M) (Homo sapiens, UniProt P22607, V555M); construct: made in house; host or cells: E. coli host derived from BL21, infected with T7 phage; assay: Kinase binding assay (Kd), FGFR3 (V555M); conditions: 11-point 3-fold dilution, qPCR readout
Below, each of the compounds is paired with its reported Kd value.
Number only, in nM; omit the unit.

The cases that follow already have their Kd on record.
# COMPOUND, MEASURED_METRIC, UNIT, ENDPOINT_VALUE
rows = [
    ("Cc1cnc(Nc2ccc(N=S(C)(C)=O)c(Cl)c2)nc1-c1c[nH]c2ccccc12", "Kd", "nM", 2),
    ("C=CC(=O)Nc1ccc2c(-c3nc(Nc4ccc(S(=N)(=O)C5CC5)cc4)ncc3Cl)c[nH]c2c1 (stereo not shown)", "Kd", "nM", 4),
    ("Cc1cnc(Nc2ccc(N=S(C)(C)=O)cc2)nc1-c1c[nH]c2ccccc12", "Kd", "nM", 57),
]

// next entry
// field: Kd; key: COc1cc(S(C)(=N)=O)ccc1Nc1ncc(Cl)c(-n2ccc3ccccc32)n1 (stereo not shown) ; value = 180

* * *

molecular target: FGFR1 (Homo sapiens); construct: made in house; host or cells: E. coli host derived from BL21, infected with T7 phage; assay: Kinase binding assay (Kd), FGFR1; conditions: 11-point 3-fold dilution, qPCR readout
Sequence (P11362 22-822): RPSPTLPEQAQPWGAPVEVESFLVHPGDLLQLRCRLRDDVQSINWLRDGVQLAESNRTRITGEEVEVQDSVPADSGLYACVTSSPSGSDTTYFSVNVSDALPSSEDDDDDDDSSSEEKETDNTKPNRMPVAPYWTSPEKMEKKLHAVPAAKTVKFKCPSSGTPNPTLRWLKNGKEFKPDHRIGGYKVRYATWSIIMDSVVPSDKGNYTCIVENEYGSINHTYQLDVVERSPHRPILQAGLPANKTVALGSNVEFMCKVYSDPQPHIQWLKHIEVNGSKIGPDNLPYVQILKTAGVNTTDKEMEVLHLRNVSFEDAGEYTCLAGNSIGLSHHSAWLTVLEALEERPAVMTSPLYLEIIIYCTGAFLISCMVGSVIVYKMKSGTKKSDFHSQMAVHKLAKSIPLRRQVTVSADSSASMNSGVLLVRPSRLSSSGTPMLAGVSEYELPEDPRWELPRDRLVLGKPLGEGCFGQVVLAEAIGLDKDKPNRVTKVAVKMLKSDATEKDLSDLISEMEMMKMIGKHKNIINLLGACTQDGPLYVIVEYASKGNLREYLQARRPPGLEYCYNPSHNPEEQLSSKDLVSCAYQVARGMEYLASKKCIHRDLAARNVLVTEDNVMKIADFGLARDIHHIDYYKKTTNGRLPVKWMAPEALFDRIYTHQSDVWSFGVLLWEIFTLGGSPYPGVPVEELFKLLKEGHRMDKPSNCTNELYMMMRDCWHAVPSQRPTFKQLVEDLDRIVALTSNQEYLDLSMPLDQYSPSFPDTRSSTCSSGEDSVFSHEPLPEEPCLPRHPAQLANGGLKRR
Below, each of the compounds is paired with its reported log10(Kd) value.
log10 Kd, nM

The cases that follow already have their log10(Kd) on record.
# COMPOUND, ENDPOINT_VALUE
rows = [
    ("CCC(=O)Nc1ccc2c(ccn2-c2nc(Nc3ccc(N4CCS(=N)(=O)CC4)cc3)ncc2Cl)c1", 2.46),
    ("Cc1cnc(Nc2ccc(N=S(C)(C)=O)c(OCCN3CCOCC3)c2)nc1-c1c[nH]c2ccccc12", 0.30),
    ("Cc1cnc(Nc2ccc(N=S(C)(C)=O)cc2)nc1-c1c[nH]c2ccccc12", 2.54),
    ("N=S1(=O)CCN(c2ccc(Nc3ncc(F)c(-c4c[nH]c5ccccc45)n3)cc2)CC1", 1.04),
]

// field: log10(Kd); key: CS(=N)(=O)c1ccc(Nc2ncc(Cl)c(-c3c[nH]c4ccccc34)n2)cc1 (centres unmarked) ; value = 1.43

* * *

Below, each of the compounds is paired with its reported Kd value.
target: FGFR3 (Homo sapiens); construct: made in house; host or cells: E. coli host derived from BL21, infected with T7 phage; test: Kinase binding assay (Kd), FGFR3; conditions: 11-point 3-fold dilution, qPCR readout
Sequence (P22607 23-806): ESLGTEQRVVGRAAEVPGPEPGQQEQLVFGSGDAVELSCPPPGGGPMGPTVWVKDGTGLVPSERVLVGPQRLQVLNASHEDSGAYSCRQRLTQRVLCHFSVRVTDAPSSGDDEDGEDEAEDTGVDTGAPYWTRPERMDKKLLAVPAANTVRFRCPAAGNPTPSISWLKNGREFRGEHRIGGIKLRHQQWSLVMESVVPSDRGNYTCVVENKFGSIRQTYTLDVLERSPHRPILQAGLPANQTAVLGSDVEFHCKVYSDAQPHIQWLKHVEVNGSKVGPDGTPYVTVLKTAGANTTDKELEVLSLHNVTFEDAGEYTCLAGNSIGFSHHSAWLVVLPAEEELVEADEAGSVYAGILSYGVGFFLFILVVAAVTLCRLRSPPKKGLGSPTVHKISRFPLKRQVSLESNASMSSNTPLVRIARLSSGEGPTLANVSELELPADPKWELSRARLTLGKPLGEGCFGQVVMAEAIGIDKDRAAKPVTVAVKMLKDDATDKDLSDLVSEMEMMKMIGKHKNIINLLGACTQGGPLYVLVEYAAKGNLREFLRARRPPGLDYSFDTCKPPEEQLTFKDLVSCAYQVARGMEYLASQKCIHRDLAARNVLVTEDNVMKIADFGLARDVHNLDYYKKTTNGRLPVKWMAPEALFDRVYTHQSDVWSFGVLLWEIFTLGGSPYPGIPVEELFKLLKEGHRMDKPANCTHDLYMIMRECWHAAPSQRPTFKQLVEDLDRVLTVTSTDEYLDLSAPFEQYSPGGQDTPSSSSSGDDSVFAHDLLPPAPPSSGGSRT
Number only, in nM; omit the unit.

// field: Kd; key: C=CC(=O)Nc1cccc2c1ccn2-c1nc(Nc2ccc(N3CCS(=N)(=O)CC3)cc2)ncc1Cl ; value = 23

// field: Kd; key: COc1cc(S(C)(=N)=O)ccc1Nc1ncc(C)c(-n2ccc3ccccc32)n1 (stereo not drawn) ; value = 1800

// field: Kd; key: COc1cc(N2CCS(=N)(=O)CC2)ccc1Nc1ncc(Cl)c(-c2c[nH]c3ccccc23)n1 ; value = 130
